B1: SMARCE1 (parent)
chain: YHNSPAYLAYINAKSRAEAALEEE

Variants of: B1
Test: protein stability index of a GFP-peptide fusion (GPS, HEK-293T) (PSI 1-6); higher = more stable;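 also: lentivirally expressed fusions sorted by FACS into six bins by GFP to DsRed ratio, PSI derived from sequencing read proportions per bin multiplied by bin number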
Details: c terminus: a fixed tail appended
Below: a set of entries, each annotated with reported protein stability index.
Please state the value as a number alone, without comment.

Mutation spec: N12T
protein stability index: 2.06

Which protein stability index is listed for `A17F` ?
2.24

Would you mind telling me what protein stability index value was observed for `A9V` ?
2.29

Which measured protein stability index value corresponds to `A20L` ?
2.15

Which protein stability index is reported for this variant? `S4V`
2.44

Fill in the blank: the reported protein stability index of `A20I` is ____.
2.25

Param item = `R16L` ; retrieve measured protein stability index.
2.56
